# system tested: human B1R receptor (hB1R) (Homo sapiens)
# Construct: expressed in transfected cells; host or cells: CHO K1 cells
# Sequence (P46663 whole entry): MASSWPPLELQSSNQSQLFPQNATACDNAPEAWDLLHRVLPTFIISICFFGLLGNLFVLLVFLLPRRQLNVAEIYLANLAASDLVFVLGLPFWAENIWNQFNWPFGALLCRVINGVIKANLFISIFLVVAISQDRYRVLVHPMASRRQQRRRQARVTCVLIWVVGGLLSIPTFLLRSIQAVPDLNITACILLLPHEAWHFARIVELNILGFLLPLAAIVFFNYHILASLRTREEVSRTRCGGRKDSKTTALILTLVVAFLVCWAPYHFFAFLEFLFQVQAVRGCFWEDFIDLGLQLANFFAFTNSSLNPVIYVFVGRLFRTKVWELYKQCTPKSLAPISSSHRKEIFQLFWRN
# protocol details: Functional investigation on the bradykinin 1 receptor (B1R), FLIPR Ca2+ assay, hB1R cells
# Assay type: cell-based
# experimental conditions: CHO-K1, 10 μM test substance; CHO K1 cells with human B1R; agonist Lys-Des-Arg9 bradykinin; % of maximum achievable inhibition; read-out: B1R antagonism, human [10 μM] % inhibition
assay readout: inhibition at 10 µM (%)

molecule | inhibition at 10 µM (%)
COc1cc(C)c(S(=O)(=O)Nc2ccc3ccn(CC(=O)N4CCC(CCN5CCCC5)CC4)c3c2)c(C)c1 [Compound G-01] | 98
O=C(CCn1ccc2ccc(N3Cc4cccc(Cl)c4C3=O)cc21)N1CCC2(CC1)CCN(c1ccncc1)CC2 [Compound G-07] | 96
O=C(CCn1ccc2cccc(N3Cc4cccc(Cl)c4C3=O)c21)N1CCC2(CC1)CCN(c1ccncc1)CC2 [Compound G-10] | 100
COc1cc(C)c(S(=O)(=O)NCc2cccc3ccn(CC(=O)N4CCC5(CC4)CCN(c4ccncc4)CC5)c23)c(C)c1 [Compound G-24] | 98
COc1cc(C)c(S(=O)(=O)Nc2cccc3ccn(CC(=O)N4CCC5(CCC(Oc6ccncc6)CC5)CC4)c23)c(C)c1 [Compound G-22] | 100
COc1cc(C)c(S(=O)(=O)Nc2cccc3ccn(CC(=O)N4CCC5(CC4)CC(c4ccncc4)=NO5)c23)c(C)c1 [Compound G-13] | 73

I = O=C(Cn1ccc2ccc(N3CCn4c(c(Cl)c5ccccc54)C3=O)cc21)N1CCC2(CC1)CCN(c1ccncc1)CC2 [Compound G-31]
II = COc1cc(C)c(S(=O)(=O)Nc2ccc3ccn(CC(=O)N4CCC(N5CCN(C)CC5)CC4)c3c2)c(C)c1 [G_CC-2]
Ask: Hey, between I and II which has a smaller measured inhibition at 10 µM? Use the label to indicate which entry you chose.
Result: II
(II: 46%, I: 80%)
